Hello, the source for this data is patent US20240316047A1, in case you need it.

target_or_system: Human recombinant DHX9 protein (Homo sapiens (Human))
assay_info: DHX9 ATPase assay (ADP-Glo)
Assay type: biochemical
metric: DHX9 Biochemical Max Inhibition

Here is how some compounds turned out for DHX9 Biochemical Max Inhibition.
{"compound": "Cn1cc(C(=O)Nc2cc(Cl)cc(NS(C)(=O)=O)c2)cc1-c1ncc(F)cc1Cl [Example 544]", "DHX9 Biochemical Max Inhibition": 66.5}
{"compound": "Cn1cc(C(=O)Nc2cc(Cl)cc(NS(C)(=O)=O)c2)cc1-c1ccccc1/C=C/c1cncc(F)c1 [Example 727]", "DHX9 Biochemical Max Inhibition": 55.3}
{"compound": "Cc1sc(C(=O)Nc2cc(Cl)cc(NS(C)(=O)=O)c2)cc1-c1ccc(N2CC(F)(F)C2)cn1 [Example 533]", "DHX9 Biochemical Max Inhibition": 83.2}
{"compound": "CS(=O)(=O)Nc1cc(Cl)cc(NC(=O)c2cc(-c3ncc(OC4CN(S(C)(=O)=O)C4)cn3)n(CC(F)(F)F)c2)c1 [Example 651]", "DHX9 Biochemical Max Inhibition": 59.6}
{"compound": "CN1CC[C@H](Oc2cnc(-c3cc(C(=O)Nc4cc(Cl)cc(NS(C)(=O)=O)c4)cn3CC(F)(F)F)nc2)C1 [Example 642]", "DHX9 Biochemical Max Inhibition": 67.3}

P. CS(=O)(=O)Nc1cc(Cl)cc(NC(=O)c2cc(-c3ncc(F)cc3OCc3cncnc3)n(CC(F)(F)F)c2)c1 [Example 735]
Q. COC1CCN(c2cc(F)cnc2-c2cc(C(=O)Nc3cc(Cl)cc(NS(C)(=O)=O)c3)sc2C)C1 (stereo not drawn) [Example 505]
Ask: Kindly identify the item with the lower DHX9 Biochemical Max Inhibition figure among these two: P and Q Answer by quoting the chosen item's label.
Reply: Q

* * *

target_or_system: Human recombinant DHX9 protein (Homo sapiens (Human), UniProt Q08211)
Sequence (Q08211 whole entry): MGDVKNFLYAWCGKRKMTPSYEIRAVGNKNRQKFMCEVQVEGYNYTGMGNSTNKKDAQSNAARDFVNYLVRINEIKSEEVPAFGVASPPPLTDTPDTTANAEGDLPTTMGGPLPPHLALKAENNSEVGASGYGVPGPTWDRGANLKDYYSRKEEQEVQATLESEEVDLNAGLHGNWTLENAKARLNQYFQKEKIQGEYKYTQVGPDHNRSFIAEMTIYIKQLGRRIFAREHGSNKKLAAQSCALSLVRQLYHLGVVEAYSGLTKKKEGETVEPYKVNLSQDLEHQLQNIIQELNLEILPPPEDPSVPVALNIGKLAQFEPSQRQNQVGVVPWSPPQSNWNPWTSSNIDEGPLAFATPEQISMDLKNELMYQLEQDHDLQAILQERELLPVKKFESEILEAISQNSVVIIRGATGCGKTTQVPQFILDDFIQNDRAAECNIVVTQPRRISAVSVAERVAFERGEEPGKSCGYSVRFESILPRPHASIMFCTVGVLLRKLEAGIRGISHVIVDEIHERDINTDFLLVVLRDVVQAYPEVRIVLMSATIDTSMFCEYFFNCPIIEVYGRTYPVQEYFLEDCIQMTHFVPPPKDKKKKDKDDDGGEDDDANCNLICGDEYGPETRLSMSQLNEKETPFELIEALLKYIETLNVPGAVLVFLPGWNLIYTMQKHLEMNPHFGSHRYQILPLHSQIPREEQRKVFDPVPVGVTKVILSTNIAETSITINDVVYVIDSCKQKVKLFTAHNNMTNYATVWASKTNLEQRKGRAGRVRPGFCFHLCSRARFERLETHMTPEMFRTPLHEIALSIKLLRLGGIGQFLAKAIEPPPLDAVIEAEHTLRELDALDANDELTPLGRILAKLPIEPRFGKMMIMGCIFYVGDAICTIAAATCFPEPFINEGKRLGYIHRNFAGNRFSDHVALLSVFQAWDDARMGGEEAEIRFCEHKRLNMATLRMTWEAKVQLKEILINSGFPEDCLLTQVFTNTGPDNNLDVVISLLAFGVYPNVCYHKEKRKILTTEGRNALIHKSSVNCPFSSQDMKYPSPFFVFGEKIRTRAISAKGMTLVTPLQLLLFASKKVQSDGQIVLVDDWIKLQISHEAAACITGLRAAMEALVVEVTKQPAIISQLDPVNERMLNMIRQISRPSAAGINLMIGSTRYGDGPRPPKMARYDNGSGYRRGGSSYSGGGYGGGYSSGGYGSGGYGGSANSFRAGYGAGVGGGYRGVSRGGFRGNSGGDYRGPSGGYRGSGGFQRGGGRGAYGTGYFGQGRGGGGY
assay_info: DHX9 ATPase assay (ADP-Glo)
test_context: read-out: DHX9 Biochemical Inflection Point
pIC50: −log10 of the molar value.
metric: pIC50

{"compound": "CS(=O)(=O)Nc1cc(Cl)cc(NC(=O)c2cnn(-c3ncccc3-c3cncnc3)c2)c1 [Example 387]", "endpoint_result": 6.73}
{"compound": "CS(=O)(=O)Nc1cc(Cl)cc(NC(=O)c2cc(-c3ncccc3OCc3cccnc3)n(CC(F)(F)F)c2)c1 [Example 185]", "endpoint_result": 8.33}
{"compound": "CCc1cn2cc(C(=O)Nc3cc(Cl)cc(NS(C)(=O)=O)c3)ccc2n1 [Example 132]", "endpoint_result": 6.53}
{"compound": "CS(=O)(=O)Nc1cc(Cl)cc(NC(=O)c2cnn(-c3ncccc3OCc3cnco3)c2)c1 [Example 66]", "endpoint_result": 7.25}
{"compound": "CCOc1cnc(-c2csc(C(=O)Nc3cc(Cl)cc(NS(C)(=O)=O)c3)c2)nc1 [Example 342]", "endpoint_result": 7.48}

P. CCc1nc2ccc(C(=O)Nc3cc(Cl)cc(NS(C)(=O)=O)c3)cn2c1N(C)C [Example 133]
Q. Cc1sc(C(=O)Nc2cc(Cl)cc(NS(C)(=O)=O)c2)cc1-c1ncc(N2CC(F)(F)C2)cc1C#N [Example 715]
Ask: Lab note: record which item had the higher pIC50, P or Q . // output: label of the selected item
Reply: Q
(Q: 7.99, P: 4.87)
